- assay_notes: Absorption after 8 hours of topical antiinflammatory formulations with or without 3% PFPE through pig skin, Franz cells (Example C)
- Assay type: in vitro ADME
- settings: topical formulation, base formula + 3% PFPE
metric: mcg of permeated active ingredient after 8 hours, Base formula + 3% PFPE (µg)

For orientation, consider the following solved cases.
[[record]]
compound = "O=C(O)Cc1ccccc1Nc1c(Cl)cccc1Cl [Diclofenac Sodium]"
measured_result = 8.66

[[record]]
compound = "CN1C(C(=O)Nc2ccccn2)=C(O)c2ccccc2S1(=O)=O"
measured_result = 7.94


A: CC(C)Cc1ccc(C(C)C(=O)O)cc1 (stereo not shown)
B: CCc1cccc2c3c([nH]c12)C(CC)(CC(=O)O)OCC3 (stereo not shown)
So which one has the bigger mcg of permeated active ingredient after 8 hours, Base formula + 3% PFPE here, A or B ? Selection: enter the item's label.
B

---

- assay_notes: Absorption after 8 hours of topical antiinflammatory formulations with or without 3% PFPE through pig skin, Franz cells (Example C)
- Assay type: in vitro ADME
- settings: topical formulation, base formula without PFPE
metric: mcg of permeated active ingredient after 8 hours, Base formula (µg)

[[record]]
molecule = "O=C(O)Cc1ccccc1Nc1c(Cl)cccc1Cl [Diclofenac Sodium]"
measured_result = 1.82


I: CN1C(C(=O)Nc2ccccn2)=C(O)c2ccccc2S1(=O)=O
II: CC(C)Cc1ccc(C(C)C(=O)O)cc1 (stereo not shown)
III: CCc1cccc2c3c([nH]c12)C(CC)(CC(=O)O)OCC3 (stereo not shown)
Rank items: key mcg of permeated active ingredient after 8 hours, Base formula, increasing. Answer format: list of labels, ordered as asked.
II, III, I
